# credit: patent US10150728B2

- TESTED TARGET: recombinant human ACC2 (Homo sapiens (Human), UniProt O00763)
- Sequence (O00763 27-2458): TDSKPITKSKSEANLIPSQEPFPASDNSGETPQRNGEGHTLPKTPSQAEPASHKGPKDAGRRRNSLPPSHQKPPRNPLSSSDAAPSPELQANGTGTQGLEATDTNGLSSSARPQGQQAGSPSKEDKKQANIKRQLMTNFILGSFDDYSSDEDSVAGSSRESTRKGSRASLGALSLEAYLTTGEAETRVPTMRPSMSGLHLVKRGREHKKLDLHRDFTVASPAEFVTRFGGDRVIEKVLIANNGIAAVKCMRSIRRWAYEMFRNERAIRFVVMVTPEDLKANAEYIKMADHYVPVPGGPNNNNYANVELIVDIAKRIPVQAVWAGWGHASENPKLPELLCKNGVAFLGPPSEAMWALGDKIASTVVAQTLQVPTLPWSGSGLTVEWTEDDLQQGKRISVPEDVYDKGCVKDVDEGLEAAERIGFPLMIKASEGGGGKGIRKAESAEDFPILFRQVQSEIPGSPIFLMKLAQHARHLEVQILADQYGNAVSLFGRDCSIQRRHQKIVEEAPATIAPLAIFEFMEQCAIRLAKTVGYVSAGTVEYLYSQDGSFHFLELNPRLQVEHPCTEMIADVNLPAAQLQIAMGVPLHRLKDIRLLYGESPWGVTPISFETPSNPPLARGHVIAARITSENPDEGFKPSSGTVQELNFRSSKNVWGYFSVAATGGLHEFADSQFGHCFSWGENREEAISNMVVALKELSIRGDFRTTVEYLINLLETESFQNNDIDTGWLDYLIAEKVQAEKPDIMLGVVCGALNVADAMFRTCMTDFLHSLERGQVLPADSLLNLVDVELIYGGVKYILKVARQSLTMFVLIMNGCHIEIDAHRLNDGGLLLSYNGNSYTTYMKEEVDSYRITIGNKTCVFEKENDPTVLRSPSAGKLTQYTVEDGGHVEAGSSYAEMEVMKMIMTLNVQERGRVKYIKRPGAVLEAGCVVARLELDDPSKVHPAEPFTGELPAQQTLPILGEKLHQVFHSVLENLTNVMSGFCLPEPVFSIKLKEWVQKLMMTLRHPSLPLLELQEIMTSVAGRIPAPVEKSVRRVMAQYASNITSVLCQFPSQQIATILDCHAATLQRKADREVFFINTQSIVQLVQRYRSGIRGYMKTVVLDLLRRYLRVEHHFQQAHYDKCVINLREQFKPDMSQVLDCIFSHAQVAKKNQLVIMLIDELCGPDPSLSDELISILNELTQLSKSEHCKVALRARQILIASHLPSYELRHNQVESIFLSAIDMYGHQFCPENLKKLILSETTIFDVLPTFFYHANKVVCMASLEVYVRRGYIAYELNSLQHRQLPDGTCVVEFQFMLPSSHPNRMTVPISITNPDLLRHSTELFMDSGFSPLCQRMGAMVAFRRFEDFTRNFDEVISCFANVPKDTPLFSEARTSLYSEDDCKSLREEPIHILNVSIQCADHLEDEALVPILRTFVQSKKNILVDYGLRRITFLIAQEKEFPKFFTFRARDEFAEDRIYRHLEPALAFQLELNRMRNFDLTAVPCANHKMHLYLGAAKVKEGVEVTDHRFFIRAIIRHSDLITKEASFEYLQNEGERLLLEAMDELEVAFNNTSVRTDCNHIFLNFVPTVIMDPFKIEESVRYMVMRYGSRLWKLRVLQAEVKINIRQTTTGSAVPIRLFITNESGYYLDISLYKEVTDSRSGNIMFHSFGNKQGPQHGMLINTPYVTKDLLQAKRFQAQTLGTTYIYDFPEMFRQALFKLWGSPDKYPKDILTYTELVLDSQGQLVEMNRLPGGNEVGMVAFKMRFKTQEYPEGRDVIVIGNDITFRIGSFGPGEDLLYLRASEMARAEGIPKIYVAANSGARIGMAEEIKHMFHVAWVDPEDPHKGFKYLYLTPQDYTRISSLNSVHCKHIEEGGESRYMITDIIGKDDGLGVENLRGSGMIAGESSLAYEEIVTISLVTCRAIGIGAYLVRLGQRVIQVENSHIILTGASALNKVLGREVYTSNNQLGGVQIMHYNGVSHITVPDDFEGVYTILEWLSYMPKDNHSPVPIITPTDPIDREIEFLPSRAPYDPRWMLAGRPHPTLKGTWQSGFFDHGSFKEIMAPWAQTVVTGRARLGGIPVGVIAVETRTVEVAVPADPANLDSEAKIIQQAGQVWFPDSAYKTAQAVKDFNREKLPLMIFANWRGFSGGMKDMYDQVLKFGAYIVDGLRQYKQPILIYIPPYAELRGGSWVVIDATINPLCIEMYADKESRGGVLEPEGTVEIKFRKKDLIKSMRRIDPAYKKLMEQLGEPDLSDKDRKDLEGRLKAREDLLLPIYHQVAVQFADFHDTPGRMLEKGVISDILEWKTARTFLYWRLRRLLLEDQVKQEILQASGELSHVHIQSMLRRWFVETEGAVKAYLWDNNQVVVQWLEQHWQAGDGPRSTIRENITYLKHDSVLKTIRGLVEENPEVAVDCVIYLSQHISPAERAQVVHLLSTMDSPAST
- TEST SUMMARY: Measurement of inhibitory activity on human ACC2 (MALDI-TOF MS, acetyl CoA to malonyl CoA conversion)
- Assay type: biochemical
- SETUP CONDITIONS: Tables 155-159
ASSAY ENDPOINT: IC50 (nM)

Here's what some known entries look like.
Please give the documented IC50 of `CCOc1cc(Cl)c2nc(O[C@H]3CC[C@H](OC[C@H](C)NC(C)=O)CC3)n(C)c2c1F` 4

Please give the documented IC50 of `C[C@@H](CC[C@H]1CC[C@H](Oc2nc3cnc(OC4CC4)c(Cl)c3n2C)CC1)NC(N)=O` 5

Please give the documented IC50 of `CC(=O)N[C@@H](C)CO[C@H]1CC[C@H](Oc2nc3ccc(OCc4ccccc4)cc3n2C)CC1` 43

P: CCOc1nc2c(Cl)c(F)c(OC[C@H]3C[C@H](OC[C@H](C)NC(C)=O)C3)nc2s1
Q: CCOc1ccc2nc(O[C@H]3CC[C@H](OC[C@H](C)NC(C)=O)CC3)n(C)c2c1F
R: CC(=O)N[C@@H](C)CO[C@H]1CC[C@H](Oc2ncc3nc(OCC4(F)COC4)sc3c2F)CC1
Falling order of IC50, please. A ranking is expressed here by listing the labels in the requested order. R, P, Q
